Task for the reader: assign each of the following compounds its reported solubility (g/100 g solution).
methodDescription: xn = mol fraction of the nth substance listed, in the solute-free solvent
testParameters: 313.15 K; x2 = 0.2
Respond using a number only.

Input CC1(C)SC2C(NC(=O)C(NC(=O)N3CCNC3=O)c3ccccc3)C(=O)N2C1C(=O)O (stereo not drawn) + CCO + CC(C)O . Output solubility (g/100 g solution): 0.368

Input CCCCN1CCCCC1C(=O)Nc1c(C)cccc1C.Cl.O (stereo not drawn) + CCO + O . Output solubility (g/100 g solution): 6.41

Input O=c1ccc2ccccc2o1 + CO + O . Output solubility (g/100 g solution): 3.08

Input CCOC(=O)C1=CC2(CC)CCCN3CCc4c(n1c1ccccc41)C32 (stereo not drawn) + CCO + O . Output solubility (g/100 g solution): 0.0375

Input O=C(CC(=O)c1ccccc1)c1ccccc1 + CCO + O . Output solubility (g/100 g solution): 0.177

Input CCCCN1CCCCC1C(=O)Nc1c(C)cccc1C.Cl.O (stereo not drawn) + CO + O . Output solubility (g/100 g solution): 9.3

Input O=C(CC(=O)c1ccccc1)c1ccccc1 + CO + O . Output solubility (g/100 g solution): 0.0775

Input O=C(CC(=O)c1ccccc1)c1ccccc1 + CC(C)O + O . Output solubility (g/100 g solution): 0.422

---

methodDescription: xn = mol fraction of the nth substance listed, in the solute-free solvent
testParameters: 313.15 K; x2 = 0.06974
experimentalReadout: solubility (g/100 g solution)
Respond using a number only.

Input COC(=O)C1=C(C)NC(C)=C(C(=O)OCC(C)C)C1c1ccccc1[N+](=O)[O-] (stereo not given) + CC(C)O + O . Output solubility (g/100 g solution): 2.35

Input O=[N+]([O-])c1cc[nH]n1 + CCCO + O . Output solubility (g/100 g solution): 1.29

Input CS(=O)(=O)c1ccc(C(O)C(CF)NC(=O)C(Cl)Cl)cc1 (stereo not given) + CC(C)O + O . Output solubility (g/100 g solution): 0.798

Input COC(=O)C1=C(C)NC(C)=C(C(=O)OCC(C)C)C1c1ccccc1[N+](=O)[O-] (stereo not given) + CCCO + O . Output solubility (g/100 g solution): 1.92

Input CC(=O)Nc1ccc(OC(=O)c2ccccc2OC(C)=O)cc1 + CC(C)O + O . Output solubility (g/100 g solution): 0.0636

---

Task for the reader: assign each of the following molecules its reported solubility (g/100 g solution).
methodDescription: xn = mol fraction of the nth substance listed, in the solute-free solvent
testParameters: 308.15 K; x2 = 0.6
Respond using a number only.

Input O=c1[nH]cc(F)c(=O)[nH]1 + CO + C1CCOC1 . Output solubility (g/100 g solution): 0.546

Input CCOC(=O)C1=CC2(CC)CCCN3CCc4c(n1c1ccccc41)C32 (stereo not drawn) + CCO + O . Output solubility (g/100 g solution): 0.824

Input O=C(CC(=O)c1ccccc1)c1ccccc1 + CO + O . Output solubility (g/100 g solution): 0.987

---

Task for the reader: assign each of the following compounds its reported solubility (g/100 g solution).
methodDescription: xn = mol fraction of the nth substance listed, in the solute-free solvent
testParameters: 313.15 K; x2 = 0.6

Input O=C(CC(=O)c1ccccc1)c1ccccc1 + CCO + O . Output solubility (g/100 g solution): 2.61

Input O=C(CC(=O)c1ccccc1)c1ccccc1 + CC(C)O + O . Output solubility (g/100 g solution): 3.27

Input CC1(C)SC2C(NC(=O)C(NC(=O)N3CCNC3=O)c3ccccc3)C(=O)N2C1C(=O)O (centres undefined) + CO + CC(C)O . Output solubility (g/100 g solution): 0.678

Input O=C(CC(=O)c1ccccc1)c1ccccc1 + CO + O . Output solubility (g/100 g solution): 1.02

Input CCOC(=O)C1=CC2(CC)CCCN3CCc4c(n1c1ccccc41)C32 (centres undefined) + CCO + O . Output solubility (g/100 g solution): 0.996

Input CCCCN1CCCCC1C(=O)Nc1c(C)cccc1C.Cl.O (centres undefined) + CCO + O . Output solubility (g/100 g solution): 8.61

Input O=c1[nH]cc(F)c(=O)[nH]1 + CO + C1CCOC1 . Output solubility (g/100 g solution): 0.639

Input O=c1ccc2ccccc2o1 + CO + O . Output solubility (g/100 g solution): 52.1

Input CCCCN1CCCCC1C(=O)Nc1c(C)cccc1C.Cl.O (centres undefined) + CO + O . Output solubility (g/100 g solution): 14.8

---

methodDescription: xn = mol fraction of the nth substance listed, in the solute-free solvent
testParameters: 303.15 K; x2 = 0.4
Task for the reader: assign each of the following compounds its reported solubility (g/100 g solution).

Input O=C(CC(=O)c1ccccc1)c1ccccc1 + CO + O . Output solubility (g/100 g solution): 0.13

Input O=C(CC(=O)c1ccccc1)c1ccccc1 + CC(C)O + O . Output solubility (g/100 g solution): 1.05

Input CCCCN1CCCCC1C(=O)Nc1c(C)cccc1C.Cl.O (centres undefined) + CCO + O . Output solubility (g/100 g solution): 4.28

Input CCOC(=O)C1=CC2(CC)CCCN3CCc4c(n1c1ccccc41)C32 (centres undefined) + CCO + O . Output solubility (g/100 g solution): 0.277

Input O=c1ccc2ccccc2o1 + CO + O . Output solubility (g/100 g solution): 10.8

Input CCCCN1CCCCC1C(=O)Nc1c(C)cccc1C.Cl.O (centres undefined) + CO + O . Output solubility (g/100 g solution): 5.89

Input O=c1ccc2ccccc2o1 + CC(C)=O + O . Output solubility (g/100 g solution): 47

Input O=C(CC(=O)c1ccccc1)c1ccccc1 + CCO + O . Output solubility (g/100 g solution): 1.28

Input CC1(C)SC2C(NC(=O)C(NC(=O)N3CCNC3=O)c3ccccc3)C(=O)N2C1C(=O)O (centres undefined) + CO + CC(C)O . Output solubility (g/100 g solution): 0.361

---

methodDescription: xn = mol fraction of the nth substance listed, in the solute-free solvent
testParameters: 303.15 K; x2 = 0.8
Kindly return MET if reported solubility (g/100 g solution) is no lower than 3; return NOT MET if it is lower.

q: Identify whether the reported solubility (g/100 g solution) of the following molecule is 3 or greater: CCOC(=O)C1=CC2(CC)CCCN3CCc4c(n1c1ccccc41)C32 (stereo not given) + CCO + O
a: NOT MET

q: Identify whether the reported solubility (g/100 g solution) of the following molecule is 3 or greater: CC1(C)SC2C(NC(=O)C(NC(=O)N3CCNC3=O)c3ccccc3)C(=O)N2C1C(=O)O (stereo not given) + CO + CC(C)O
a: NOT MET

q: Identify whether the reported solubility (g/100 g solution) of the following molecule is 3 or greater: O=C(CC(=O)c1ccccc1)c1ccccc1 + CO + O
a: NOT MET

q: Identify whether the reported solubility (g/100 g solution) of the following molecule is 3 or greater: O=C(CC(=O)c1ccccc1)c1ccccc1 + CCO + O
a: MET

q: Identify whether the reported solubility (g/100 g solution) of the following molecule is 3 or greater: CC1(C)SC2C(NC(=O)C(NC(=O)N3CCNC3=O)c3ccccc3)C(=O)N2C1C(=O)O (stereo not given) + CCO + CC(C)O
a: NOT MET

q: Identify whether the reported solubility (g/100 g solution) of the following molecule is 3 or greater: CCCCN1CCCCC1C(=O)Nc1c(C)cccc1C.Cl.O (stereo not given) + CCO + O
a: MET

q: Identify whether the reported solubility (g/100 g solution) of the following molecule is 3 or greater: CCCCN1CCCCC1C(=O)Nc1c(C)cccc1C.Cl.O (stereo not given) + CO + O
a: MET

q: Identify whether the reported solubility (g/100 g solution) of the following molecule is 3 or greater: O=c1ccc2ccccc2o1 + CC(C)=O + O
a: MET

q: Identify whether the reported solubility (g/100 g solution) of the following molecule is 3 or greater: O=c1ccc2ccccc2o1 + CO + O
a: MET

---

Task for the reader: assign each of the following compounds its reported solubility (g/100 g solution).
methodDescription: xn = mol fraction of the nth substance listed, in the solute-free solvent
testParameters: 288.15 K; x2 = 0.5
Respond using a number only.

Input CCOC(=O)C1=CC2(CC)CCCN3CCc4c(n1c1ccccc41)C32 (stereo not given) + CCO + O . Output solubility (g/100 g solution): 0.235

Input CN1CCN(C(=O)OC2c3nccnc3C(=O)N2c2ccc(Cl)cn2)CC1 (stereo not given) + CC(C)=O + O . Output solubility (g/100 g solution): 0.515

Input CN1CCN(C(=O)OC2c3nccnc3C(=O)N2c2ccc(Cl)cn2)CC1 (stereo not given) + C1CCOC1 + O . Output solubility (g/100 g solution): 1.33

Input O=c1ccc2ccccc2o1 + CO + O . Output solubility (g/100 g solution): 3.86

Input CN1CCN(C(=O)OC2c3nccnc3C(=O)N2c2ccc(Cl)cn2)CC1 (stereo not given) + CC#N + O . Output solubility (g/100 g solution): 2.08
